test system: VchCAST RNA-guided transposition machinery (E. coli BL21(DE3) host, lacZ target); test: relative integration efficiency (T-LR orientation) vs wild-type transposon end (log2 (normalized fold change)); transposon end mutated: right end (5 bp flank + 75 bp right end); higher = more efficient transposition
QUANTITY_NAME: relative integration efficiency (log2)
// return just the number, without any unit appended

Request: Consider the sequence shown here: ACATTTGTTGATAGTTGCATAAAATGATAATTACACCCATAAATTGATAATTATCACACCCATAAATTGATATTGCCTCTGATCATAGTCAGACCAACATTGCTACGACCCGTATTCGCACCGACAC What is its recorded relative integration efficiency (log2)?
Response: -1.37

Request: Consider the sequence shown here: ACATTTGTTCATACAACCCTAAAATGATAATTACACCCATAAATTGATAATTATCACACCCAATTTAACTATAACGCTCTGATCATAGTCAGACCAACATTGCTACGACCCGTATTCGCACCGACAC What is its recorded relative integration efficiency (log2)?
Response: -1.03

Request: Consider the sequence shown here: ACATTTGTTGATACACCCATAAATTGATATTGCCAACCATATATTGATATCTCTCAGTGGGTATTTAACTATAACGCTCTGATCATAGTCAGACCAACATTGCTACGACCCGTATTCGCACCGACAC What is its recorded relative integration efficiency (log2)?
Response: 2.26
